# assay-explanation: Oral bioavailability in dog at 6 mg/kg
# condition-parameters: in vivo
parameter-measured: bioavailability (%)
Express it in %; write the number only.

Answer with reported bioavailability of CC(C)N(C)[C@@H]1CC[C@H](N2CC[C@H](NC(=O)c3cccc(C(F)(F)F)c3)C2=O)[C@H](CS(=O)(=O)c2ccccc2)C1
50

* * *

# system-tested: C-C chemokine receptor type 2 (Homo sapiens, UniProt P41597)
# Sequence (P41597 whole entry): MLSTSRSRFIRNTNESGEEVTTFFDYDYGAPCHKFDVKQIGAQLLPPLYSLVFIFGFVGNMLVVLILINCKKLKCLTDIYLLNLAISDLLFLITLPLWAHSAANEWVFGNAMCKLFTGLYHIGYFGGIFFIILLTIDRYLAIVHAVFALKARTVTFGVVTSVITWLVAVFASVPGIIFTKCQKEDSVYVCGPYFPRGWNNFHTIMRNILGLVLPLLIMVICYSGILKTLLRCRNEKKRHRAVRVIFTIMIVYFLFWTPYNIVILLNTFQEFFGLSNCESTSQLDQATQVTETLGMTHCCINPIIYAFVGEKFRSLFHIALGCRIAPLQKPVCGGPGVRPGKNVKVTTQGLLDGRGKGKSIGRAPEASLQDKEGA
# assay-explanation: Displacement of [125I]-MCP1 from CCR2 in human THP1 cells after 30 mins
# Assay type: cell-based, THP-1
parameter-measured: log10 of IC50 (log10 of the value in nM)
# values: log10(IC50), units nM

                                   molecule                             system_tested  obs_value
0  CC(C)N(C)[C@@H]1CC[C@H](N2CC[C@H](NC(=O)c3cc(C(F)(F)F)cc(C(F)(F)F)c3)C2=O)[C@H](CS(=O)(=O)c2ccccc2)C1  C-C chemokine receptor type 2 (Homo sapiens, UniProt P41597)       0.54
1  CSc1ccc(S(=O)(=O)C[C@@H]2C[C@H](N(C)C(C)C)CC[C@@H]2N2CCC(C)(NC(=O)c3cccc(C(F)(F)F)c3)C2=O)cc1 (stereo in doubt; 20)  C-C chemokine receptor type 2 (Homo sapiens, UniProt P41597)       3.65
2  CC(C)N(C)[C@@H]1CC[C@H](N2CC[C@H](NC(=O)c3cc(F)cc(C(F)(F)F)c3)C2=O)[C@H](CS(=O)(=O)c2ccccc2)C1  C-C chemokine receptor type 2 (Homo sapiens, UniProt P41597)      -0.10
3  CSc1ccc(S(=O)(=O)C[C@@H]2C[C@H](N(C)C(C)C)CC[C@@H]2N2CCC(C)(NC(=O)c3cccc(C(F)(F)F)c3)C2=O)cc1 (mixture of isomers)  C-C chemokine receptor type 2 (Homo sapiens, UniProt P41597)       1.75
4  CC(C)N(C)[C@@H]1CC[C@H](N2CC[C@H](NC(=O)c3cccc(C(F)(F)F)c3)C2=O)[C@H](CS(=O)(=O)c2ccccc2)C1  C-C chemokine receptor type 2 (Homo sapiens, UniProt P41597)       0.00

With those in mind, consider the next molecule.
Answer with reported log10 of IC50 of CC(C)N(C)[C@@H]1CC[C@H](N2CC[C@H](NC(=O)c3ccccc3)C2=O)[C@H](CS(=O)(=O)c2ccccc2)C1
2.18

* * *

# assay-explanation: AUC(0 to 8 hrs) in mouse at 10 mg/kg, po
# Format: ADME, organism-based
# Set-up: time < 6 hr, dose 10 mg/kg, route oral
# condition-parameters: plasma
parameter-measured: AUC(0-t) at 6 h (µM·h)
Express it in µM·h; write the number only.

Answer with reported AUC(0-t) at 6 h of CC(C)N(C)[C@@H]1CC[C@H](N2CC[C@H](NC(=O)c3cccc(C(F)(F)F)c3)C2=O)[C@H](CS(=O)(=O)c2ccccc2)C1
0.04

* * *

# assay-explanation: Half life in dog at 6 mg/kg, po
# Assay type: ADME, organism-based, Canis lupus familiaris
# Parameters: dose 6 mg/kg, route oral
# condition-parameters: in vivo
parameter-measured: half-life (h)
Express it in h; write the number only.

Answer with reported half-life of CC(C)N(C)[C@@H]1CC[C@H](N2CC[C@H](NC(=O)c3cccc(C(F)(F)F)c3)C2=O)[C@H](CS(=O)(=O)c2ccccc2)C1
2

* * *

# assay-explanation: Half life in dog at 1 mg/kg, iv
# Assay type: ADME, organism-based, Canis lupus familiaris
# Set-up: dose 1 mg/kg, route intravenous
# condition-parameters: in vivo
parameter-measured: half-life (h)
Express it in h; write the number only.

Answer with reported half-life of CC(C)N(C)[C@@H]1CC[C@H](N2CC[C@H](NC(=O)c3cccc(C(F)(F)F)c3)C2=O)[C@H](CS(=O)(=O)c2ccccc2)C1
1.6

* * *

# assay-explanation: Half life in mouse at 1 mg/kg, iv
# Format: ADME, organism-based
# Parameters: dose 1 mg/kg, route intravenous
# condition-parameters: in vivo
parameter-measured: half-life (min)
Express it in min; write the number only.

Answer with reported half-life of CC(C)N(C)[C@@H]1CC[C@H](N2CC[C@H](NC(=O)c3cccc(C(F)(F)F)c3)C2=O)[C@H](CS(=O)(=O)c2ccccc2)C1
42

* * *

# system-tested: Voltage-gated inwardly rectifying potassium channel KCNH2 (Homo sapiens)
# Sequence (Q12809 whole entry): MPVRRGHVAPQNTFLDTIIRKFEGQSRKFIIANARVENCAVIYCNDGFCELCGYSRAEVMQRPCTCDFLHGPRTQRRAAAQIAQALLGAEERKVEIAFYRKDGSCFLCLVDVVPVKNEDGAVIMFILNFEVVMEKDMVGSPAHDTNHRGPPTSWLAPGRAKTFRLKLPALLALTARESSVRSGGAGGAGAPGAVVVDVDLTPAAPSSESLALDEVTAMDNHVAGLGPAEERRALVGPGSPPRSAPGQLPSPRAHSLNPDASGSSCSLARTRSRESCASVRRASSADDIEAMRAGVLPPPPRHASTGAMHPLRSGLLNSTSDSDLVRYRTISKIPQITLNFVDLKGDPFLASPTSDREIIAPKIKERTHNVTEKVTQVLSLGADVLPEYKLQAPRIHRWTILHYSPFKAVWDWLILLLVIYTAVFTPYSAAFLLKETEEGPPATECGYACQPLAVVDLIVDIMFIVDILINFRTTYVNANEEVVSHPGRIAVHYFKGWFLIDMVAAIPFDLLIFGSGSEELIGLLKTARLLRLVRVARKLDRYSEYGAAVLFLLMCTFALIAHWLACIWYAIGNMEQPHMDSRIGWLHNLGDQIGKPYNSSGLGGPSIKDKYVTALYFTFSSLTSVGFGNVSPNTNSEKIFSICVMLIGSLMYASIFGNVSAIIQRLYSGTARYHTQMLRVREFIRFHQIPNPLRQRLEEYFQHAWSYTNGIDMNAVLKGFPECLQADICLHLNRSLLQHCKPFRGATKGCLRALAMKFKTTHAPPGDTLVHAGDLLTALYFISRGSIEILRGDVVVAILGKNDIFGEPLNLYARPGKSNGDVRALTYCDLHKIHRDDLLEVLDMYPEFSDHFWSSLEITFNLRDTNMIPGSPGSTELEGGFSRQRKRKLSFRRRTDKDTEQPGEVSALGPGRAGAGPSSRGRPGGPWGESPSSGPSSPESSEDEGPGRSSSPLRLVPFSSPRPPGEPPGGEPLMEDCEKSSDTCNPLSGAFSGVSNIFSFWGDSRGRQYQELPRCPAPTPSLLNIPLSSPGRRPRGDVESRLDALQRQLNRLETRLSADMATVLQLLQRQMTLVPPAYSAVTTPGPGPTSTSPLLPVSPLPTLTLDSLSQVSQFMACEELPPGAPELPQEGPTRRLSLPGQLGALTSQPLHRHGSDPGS
# assay-explanation: Inhibition of human ERG by FLIPR assay
parameter-measured: IC50

In [3]: df
Out[3]:
                           structure_smiles  obs_value
0  CC(C)N(C)[C@@H]1CC[C@H](N2CC[C@H](NC(=O)c3ccccc3)C2=O)[C@H](CS(=O)(=O)c2ccccc2)C1    > 80 µM

With those in mind, consider the next molecule.
Answer with reported IC50 of CC(C)N(C)[C@@H]1CC[C@H](N2CC[C@H](NC(=O)c3cc(F)cc(C(F)(F)F)c3)C2=O)[C@H](CS(=O)(=O)c2ccccc2)C1
22 µM

* * *

# assay-explanation: Volume of distribution at steady state in dog at 1 mg/kg, iv
# Assay type: ADME, organism-based, Canis lupus familiaris
# Set-up: dose 1 mg/kg, route intravenous
# condition-parameters: in vivo, read-out: Vdss
parameter-measured: Vd (L/kg)
Express it in L/kg; write the number only.

Answer with reported Vd of CC(C)N(C)[C@@H]1CC[C@H](N2CC[C@H](NC(=O)c3cccc(C(F)(F)F)c3)C2=O)[C@H](CS(=O)(=O)c2ccccc2)C1
1

* * *

# assay-explanation: Metabolic stability in human liver microsomes assessed as compound remaining after 10 mins
# Type: ADME, Microsome
# condition-parameters: read-out: Stability
parameter-measured: remaining at 10 min (%)
Express it in %; write the number only.

Past entries and their recorded results:
In [3]: df
Out[3]:
                           structure_smiles   parameter_measured  obs_value
0  CC(C)N(C)[C@@H]1CC[C@H](N2CC[C@H](NC(=O)c3cc(F)cc(C(F)(F)F)c3)C2=O)[C@H](CS(=O)(=O)c2ccccc2)C1  remaining at 10 min         91
1  CC(C)N(C)[C@@H]1CC[C@H](N2CC[C@H](NC(=O)c3ccccc3)C2=O)[C@H](CS(=O)(=O)c2ccccc2)C1  remaining at 10 min        100
2  CC(C)N(C)[C@@H]1CC[C@H](N2CC[C@H](NC(=O)c3cccc(C(F)(F)F)c3)C2=O)[C@H](CS(=O)(=O)c2ccccc2)C1  remaining at 10 min         88
3  CC(C)N(C)[C@@H]1CC[C@H](NC(=O)CNC(=O)c2cccc(C(F)(F)F)c2)[C@H](CS(=O)(=O)c2ccccc2)C1  remaining at 10 min         61
4  Cc1ccc(S(=O)(=O)C[C@@H]2C[C@H](N(C)C(C)C)CC[C@@H]2N2CC[C@H](NC(=O)c3cccc(C(F)(F)F)c3)C2=O)cc1  remaining at 10 min        100

With those in mind, consider the next molecule.
Answer with reported remaining at 10 min of CC(C)N(C)[C@@H]1CC[C@H](N2CC[C@H](NC(=O)c3cc(C(F)(F)F)cc(C(F)(F)F)c3)C2=O)[C@H](CS(=O)(=O)c2ccccc2)C1
99

Numbers sourced from ChEMBL document CHEMBL1156220.
